Reported IC50 values for a set of compounds
tested on: AsPC-1 cells (KRAS^G12D mutation); test: Cell proliferation inhibition assay (3D, CellTiter-Glo), AsPC-1; type: cell-based, human; conditions: Homo sapiens, ASPC1, 120 h, 3D cell model, 5 days

compound: C#Cc1cccc2cc(O)cc(-c3ncc4c(N5C[C@H]6CC[C@@H](C5)N6)nc(OCC56CC(=C)CN5CCC65CC5)nc4c3F)c12 (stereo partly drawn) [Example Z106]
unit-symbol: nM
IC50: 14.7
//
compound: C#Cc1cccc2cc(O)cc(-c3ncc4c(N5C[C@H]6CC[C@@H](C5)N6)nc(OCC56CCCN5CC(=CF)C6)nc4c3F)c12 (stereo partly drawn) [Example Z5]
unit-symbol: nM
IC50: 29.4
//
compound: C#Cc1cccc2cc(N)c(F)c(-c3ncc4c(N5C[C@H]6CC[C@@H](C5)N6)nc(OCC56CC(=C)CN5CC(=C)C6)nc4c3F)c12 [Example Z213]
unit-symbol: nM
IC50: 335
